Molecular target: plasma kallikrein (Homo sapiens)
Construct: from tissue
Sequence (P03952 391-638 limits assumed): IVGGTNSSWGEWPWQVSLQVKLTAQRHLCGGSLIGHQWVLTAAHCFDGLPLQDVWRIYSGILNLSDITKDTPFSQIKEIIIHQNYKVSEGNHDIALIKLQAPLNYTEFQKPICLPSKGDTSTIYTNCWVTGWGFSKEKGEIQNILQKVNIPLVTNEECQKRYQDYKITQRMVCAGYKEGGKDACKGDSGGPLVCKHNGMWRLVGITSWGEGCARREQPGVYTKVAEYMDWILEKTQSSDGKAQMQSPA
Sequence (P03952 20-390 partner limits assumed): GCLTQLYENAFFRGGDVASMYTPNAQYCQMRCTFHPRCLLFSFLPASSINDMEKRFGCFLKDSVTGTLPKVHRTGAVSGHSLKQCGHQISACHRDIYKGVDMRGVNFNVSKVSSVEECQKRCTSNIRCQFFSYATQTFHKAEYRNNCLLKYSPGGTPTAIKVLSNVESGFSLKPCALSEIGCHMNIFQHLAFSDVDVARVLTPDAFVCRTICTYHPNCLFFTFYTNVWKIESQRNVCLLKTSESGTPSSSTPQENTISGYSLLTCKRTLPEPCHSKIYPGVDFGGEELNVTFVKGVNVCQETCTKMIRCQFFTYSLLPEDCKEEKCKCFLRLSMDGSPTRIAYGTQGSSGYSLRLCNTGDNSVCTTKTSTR
Assay: Neat human plasma assay, FXIIa contact pathway-activated, PFR-AMC substrate
Format: biochemical
Conditions: citrated human plasma 78% final, 10 nM human FXIIa, 100 μM PFR-AMC; read-out: Human Plasma Assay: IC90
Method: To analyze inhibition of plasma kallikrein in an ex vivo setting, the potency of compounds was measure in contact pathway-activated plasma assays. In a fluorogenic peptide substrate assay, test compounds dissolved in DMSO were added to sodium citrate collected human or rat plasma in a 96-well microplate. […] Fluorescence was immediately monitored by excitation/emission wavelengths of 360 nm/480 nm respectively over a period of 5 minutes in a microplate reader. […]
Would you kindly list IC90 for each of these compounds?

Reference set, count: 2
{"columns": ["COMPOUND", "IC90"],
 "data": [
  ["Cc1cc(NCc2cn3cc(C4CC4)ccc3n2)cc(NC(=O)[C@H]2C[C@@H]2c2cc(Cl)ccc2C#N)n1 (racemic) [Example 342]", "1.5 to 10 µM"],
  ["Cc1ccnc([C@H]2C[C@@H]2C(=O)Nc2cc(N(C)Cc3cn4cc(C5CC5)cc(N5CC(=O)N(CCO)C5=O)c4n3)ncn2)n1 [Example 462]", "< 0.4 µM"]
]}

Record COCc1nc(NCc2cn3cc(C4CC4)ccc3n2)cc(NC(=O)[C@@H]2C[C@H]2c2cccc(Cl)c2)n1 (racemic) [Example 108] , field IC90: 10 to 48 µM

###

Target: human activated kallikrein enzyme (Homo sapiens, UniProt P03952)
Test: Plasma kallikrein inhibition, fluorogenic PFR-AMC substrate, 500 pM activated kallikrein format
Type: biochemical
Settings: 500 pM activated kallikrein, 300 uM PFR-AMC, 30 min preincubation, 10 min reaction; read-out: Primary Dose Response Assay: Average EC50
pEC50: −log10 of the molar value.
Would you kindly list pEC50 for each of these compounds?

Reference set, count: 4
{"columns": ["COMPOUND", "pEC50"],
 "data": [
  ["O=C(Nc1nccc(NCc2cn3cc(C4CC4)ccc3n2)n1)[C@H]1C[C@@H]1c1cccc(Cl)c1 (racemic)", "8.00 to 9.00"],
  ["CC(C)(C)OC(=O)Nc1cc(C2CC2)cn2cc(CNc3cc(NC(=O)[C@H]4C[C@@H]4c4cccc(Cl)c4)ncn3)nc12", "6.00 to 7.00"],
  ["CN1C(=O)CN(c2cc(C3CC3)cn3cc(CNc4cc(NC(=O)[C@H]5C[C@@H]5c5cccc(Cl)c5)ncn4)nc23)C1=O", "> 9.00"],
  ["Cc1ccnc([C@H]2C[C@@H]2C(=O)Nc2cc(OC(C)c3cn4cc(C5CC5)cc(N5CC(=O)NC5=O)c4n3)cnn2)n1 (stereo partly shown)", "8.00 to 9.00"]
]}

Give one value of pEC50 per listed compound.
1. CCOC(=O)CCOc1ccc(Cl)cc1[C@H]1C[C@@H]1C(=O)Nc1cc(NCc2cn3cc(C4CC4)ccc3n2)ncn1 (racemic)
2. Cc1cc(N2CC3CC3C2=O)c2nc([C@@H](C)Nc3cc(NC(=O)[C@H]4C[C@@H]4c4nccc(C)n4)nc(C)n3)cn2c1 (stereo partly shown)
3. CN1CC(O)(c2cc(C3CC3)cn3cc(CNc4ccnc(NC(=O)[C@H]5C[C@@H]5c5cccc(Cl)c5)c4)nc23)C1
4. [2H]C([2H])(Nc1cc(NC(=O)[C@H]2C[C@@H]2c2nccc(C)n2)ncn1)c1cn2cc(C3CC3)cc(N3CC(=O)N(C)C3=O)c2n1 (racemic)

7.00 to 8.00
8.00 to 9.00
> 9.00
> 9.00

Give one value of pEC50 per listed compound.
1. O=C(Nc1cc(NCc2cn3cc(C4CC4)ccc3n2)ccn1)[C@H]1C[C@@H]1c1cc(Cl)ccn1 (single isomer, unassigned) [Example I-269]
2. O=C(Nc1cc(NCc2cn3cc(C4CC4)ccc3n2)ncn1)[C@H]1C[C@@H]1c1cc(F)cc(Cl)c1 (racemic)
3. O=C(Nc1cc(N(CCO)Cc2cn3cc(C4CC4)ccc3n2)ncn1)[C@H]1C[C@@H]1c1cc(Cl)ccn1
4. Cc1ccnc([C@H]2C[C@@H]2C(=O)Nc2cc(N3C[C@@H](O)C[C@@H]3c3cn4cc(C5CC5)ccc4n3)ncn2)c1 (relative stereo)
5. Cc1ccnc([C@H]2C[C@@H]2C(=O)Nc2cc(NCc3cn4cc(C5CC5)cc(N5CC(=O)NC5=O)c4n3)ncn2)n1 (racemic)
6. CN1CC(F)(c2cc(C3CC3)cn3cc(CNc4cc(NC(=O)[C@H]5C[C@@H]5c5cccc(Cl)c5)ncn4)nc23)C1

1. 7.00 to 8.00
2. 7.00 to 8.00
3. 7.00 to 8.00
4. 8.00 to 9.00
5. > 9.00
6. > 9.00

Give one value of pEC50 per listed compound.
1. COc1nc(NC(=O)[C@H]2C[C@@H]2c2nccc(C)n2)cc(N(C)Cc2cn3cc(C4CC4)cc(N4CC(=O)N(C)C4=O)c3n2)n1
2. CN1C(=O)CN(c2cc(C3CC3)cn3cc(CNc4cc(NC(=O)[C@@H]5C[C@H]5c5cc(Cl)ccn5)ncn4)nc23)C1=O (single isomer, unassigned)
3. Cc1ccnc([C@H]2C[C@@H]2C(=O)Nc2cc(N[C@H](C)c3cn4cc(C5CC5)cc(N5C(=O)N(C)C(=O)C5(C)C)c4n3)nc(C)n2)n1

["> 9.00", "7.00 to 8.00", "> 9.00"]

Give one value of pEC50 per listed compound.
1. NCc1cc(C2CC2)cn2cc(CNc3ccnc(NC(=O)[C@H]4C[C@@H]4c4cccc(Cl)c4)c3)nc12 (racemic) [Example 120]
2. O=C(Nc1cc(NCc2cn3cc(C4CC4)cc(N4CC(=O)N(CC(F)(F)F)C4=O)c3n2)ncn1)[C@H]1C[C@@H]1c1cccc(Cl)c1
3. Cc1ccnc([C@H]2C[C@@H]2C(=O)Nc2cc(N[C@H](C)c3cn4cc(C5CC5)cc(N5CC6(CN(C)C6)N(C)C5=O)c4n3)ncn2)n1
4. COCCOCCN1C(=O)CN(c2cc(C3CC3)cn3cc(CNc4cc(NC(=O)[C@H]5C[C@@H]5c5nccc(C)n5)ncn4)nc23)C1=O

> 9.00
8.00 to 9.00
> 9.00
> 9.00

The reported numbers originate from patent US20240228488A1.
